protocol details: Pharmacokinetics of daptomycin in patients undergoing low-flow CVVHDF
Format: in vivo, human
condition set: human, iv; 6 mg/kg i.v. every 48 hours, ICU patients on low-flow CVVHDF, blood samples 0-48 hours, HPLC; mean of three patients; read-out: Maximum concentration (Cmax)
test readout: Cmax (µg/mL)
Record the value in µg/mL, omitting the unit from your answer.

Given item CCCCCCCCCC(=O)N[C@@H](Cc1c[nH]c2ccccc12)C(=O)N[C@H](CC(N)=O)C(=O)N[C@@H](CC(=O)O)C(=O)N[C@@H]1C(=O)NCC(=O)N[C@@H](CCCN)C(=O)N[C@@H](CC(=O)O)C(=O)N[C@H](C)C(=O)N[C@@H](CC(=O)O)C(=O)NCC(=O)N[C@H](CO)C(=O)N[C@@H]([C@H](C)CC(=O)O)C(=O)N[C@@H](CC(=O)c2ccccc2N)C(=O)O[C@@H]1C , the value recorded as its Cmax is 50.1

---

protocol details: Pharmacokinetics of daptomycin in patients undergoing low-flow CVVHDF
Format: in vivo, human
condition set: human, blood, iv, 6 mg/kg, 6 mg/kg i.v. every 48 hours, low-flow CVVHDF, HPLC; single patient, first listed; read-out: elimination half-life (t1/2) (converted)
test readout: half-life (h)
Record the value in h, omitting the unit from your answer.

Given item CCCCCCCCCC(=O)N[C@@H](Cc1c[nH]c2ccccc12)C(=O)N[C@H](CC(N)=O)C(=O)N[C@@H](CC(=O)O)C(=O)N[C@@H]1C(=O)NCC(=O)N[C@@H](CCCN)C(=O)N[C@@H](CC(=O)O)C(=O)N[C@H](C)C(=O)N[C@@H](CC(=O)O)C(=O)NCC(=O)N[C@H](CO)C(=O)N[C@@H]([C@H](C)CC(=O)O)C(=O)N[C@@H](CC(=O)c2ccccc2N)C(=O)O[C@@H]1C , the value recorded as its half-life is 18.6
